Data provenance is PubChem BioAssay (NCI).

Test system: SK-OV-3 ovarian
experiment: NCI-60 one-dose screen, 48 h
condition_info: 10 µM
Compounds without any hit were thinned out: in the full panel of roughly 83,000, 20% have a hit. Activity calls are given as the source filed them. The calls were made as follows: active = growth percent below 10; inactive = the rest.
Give one outcome, nothing more. List: T = active, F = inactive

A selection of reference data follows.
INSERT INTO results (compound, study_target, class_assignment) VALUES
  ('Cc1cc(Cl)nc(N(CCCNc2ccnc3cc(Cl)ccc23)Cc2cccs2)n1', 'SK-OV-3 ovarian', 'F'),
  ('S=c1[nH]ccn1-c1c(Cl)cccc1Cl', 'SK-OV-3 ovarian', 'F'),
  ('COc1cc(-c2cc(C(=O)N3CCN(C(=O)c4ccccc4NCc4ccco4)CC3)nc3cc(-c4ccccc4)nn23)cc(OC)c1OC', 'SK-OV-3 ovarian', 'F');

Look up the recorded call for Cc1cc(Nc2ccc(Cl)cc2)nc(NCCCNc2ccnc3cc(Cl)ccc23)n1 in this test.
T

Look up the recorded call for O=C(CC(c1ccccc1)N1CCOCC1)c1ccccc1 (stereo not drawn) in this test.
F

---

Tested on: M14 melanoma
experiment: NCI-60 one-dose screen, 48 h (100 = growth as untreated, 0 = no growth, -100 = all killed)
condition_info: 10 µM
About 83,000 compounds went through this panel and 20% of them were active in at least one assay; those are over-represented in the sample as a whole.
Entries and their measured growth follow.
The reply should contain only the number, in %.

Report growth for COc1ccc2c(c1)sc1nc(-c3ccccc3)c(-c3ccsc3)n12
15.6

Report growth for COc1ccc(S(=O)(=O)Nc2c(/C=C\c3cc(OC)c(OC)c(OC)c3)ccc(OC)c2O)cc1
2.65

Report growth for O=C(O)CN1C(=O)c2cccc3cccc(c23)C1=O
99.6

Report growth for Cc1ccc(NC(=O)Nc2c(Cl)cccc2Cl)cn1
96.1

Report growth for O=C1OCC2=C1C(c1cccc(Br)c1)c1cc3c(cc1N2CCO)CCC3 (centres undefined)
12.8

Report growth for CC(=O)C1CCC2C3CC(F)C4=CC(=O)CCC4(C)C3C(O)CC12C (centres undefined)
93.6

Report growth for COc1ccc(/C=C/C(=O)Nc2ccc(-c3nc4ccc(F)cc4s3)cc2)cc1
102

Report growth for COc1ccc(/C=C/C(C)=N/OCC(=O)O)cc1
100

---

Entries and their measured growth follow.
Tested on: U251 CNS
experiment: NCI-60 one-dose screen, 48 h (100 = growth as untreated, 0 = no growth, -100 = all killed)
condition_info: 10 µM
Description: Growth inhibition of the U251 human tumor cell line is measured as a screen for anti-cancer activity. Cells are grown in 96 well plates and exposed to the test compound for 48 hours. Compounds are tested at a single concentration, which is 10^-5 M for most compounds. The reported endpoint is percent growth (GI% or GIPRCNT), where numbers from 0 - 100% represent growth inhibition, and numbers from -100% - 0 represent cell death. For example, a value of 40 represents 60% growth inhibition. […]
The panel holds about 83,000 compounds, 20% with a hit somewhere; the sample as a whole holds those more often.
The reply should contain only the number, in %.

INSERT INTO measurements (compound, recorded_metric, value_reported) VALUES
  ('CCN1CCCC1CNC(=O)c1ncc(-c2ccc(C(F)(F)F)cc2)c(NC2CCCCCC2)n1 (centres undefined)', 'growth', 52.7);

Report growth for CS(=O)(=O)Nc1cccc(-c2cc(-c3ccccc3Cl)c(C#N)c(N)n2)c1
24.7

Report growth for N=C(N)c1ccc(-c2ccc(-c3ccco3)o2)cc1
53.5

Report growth for O=S(=O)(NCCNc1nccc(-c2c(-c3ccc(F)cc3)nc3sccn23)n1)c1ccc2ccccc2c1
71

Report growth for Cn1c([N+](=O)[O-])cnc1/C=C1\Oc2ccccc2C1=O
-12.6

Report growth for O=c1[nH]c(-c2ccc(Cl)cc2)nc2sc3c(c12)CCCC3
54.3

Report growth for CCCC(F)C(=O)O (centres undefined)
95.9

Report growth for CCCCCCCCCCCCC1C/C=C\CCCC(=O)O1 (centres undefined)
109

Report growth for COc1ccc2c(c1)[n+]([O-])c(C#N)c(NC(=O)c1ccco1)[n+]2[O-]
98.5

Report growth for COc1cc(Cl)cc(-c2nn(-c3cccc(NC(=O)c4ccc(N5CCOCC5)c(C(F)(F)F)c4)c3)cc2-c2ccncc2)c1
32.3

Report growth for O=C(c1cccs1)c1ccccc1Cc1ccccc1
92.5

Report growth for O=C(CC(c1ccccc1)N1CCOCC1)c1ccccc1 (centres undefined)
80.8

Report growth for O=C(Nc1cccc(-n2cc(-c3ccncc3)c(-c3ccc(O)c(Cl)c3)n2)c1)c1cc(C(F)(F)F)cc(C(F)(F)F)c1
33.1

Report growth for COc1cc(/C=N/NC(=O)c2ccccc2Nc2ccnc(C(F)(F)F)c2)ccc1O
106

---

System: SNB-75 CNS
experiment: NCI-60 one-dose screen, 48 h (100 = growth as untreated, 0 = no growth, -100 = all killed)
condition_info: 10 µM
Compounds without any hit were thinned out: in the full panel of roughly 83,000, 20% have a hit.
Label N if growth falls below 60%; label Y in every other case.

A selection of reference data follows.
INSERT INTO results (compound, class_assignment) VALUES
  ('COc1ccc([N+](=O)[O-])c(C(=O)O)c1', 'Y'),
  ('O=C(Nc1nc2ccccc2s1)Nc1ccc([N+](=O)[O-])cc1Cl', 'N'),
  ('COc1ccc(/C=C/C(=O)Nc2ccc(-c3nc4ccc(F)cc4s3)cc2)cc1', 'Y');

Form field: growth at least 60%? Entry: COc1ccc(-c2nn(-c3cccc(NC(=O)Nc4cc(C(F)(F)F)cc(C(F)(F)F)c4)c3)cc2-c2ccncc2)cc1Cl
N

Form field: growth at least 60%? Entry: COc1ccc(-c2nc(-c3nc4cc(Cl)c(F)cc4[nH]3)c3ccccn23)cc1
Y

Form field: growth at least 60%? Entry: CN(C)c1ccc(/C=C/C=N/NC(=O)c2cc(O)c(O)c(O)c2)cc1
Y

Form field: growth at least 60%? Entry: CC12O[C@H](C[C@@H](OC(=O)c3ccccc3)[C@H]1O)n1c3ccccc3c3c4c(c5c6ccccc6n2c5c31)C(=O)NC4=O
N

---

System: SK-OV-3 ovarian
experiment: NCI-60 one-dose screen, 48 h (100 = growth as untreated, 0 = no growth, -100 = all killed)
condition_info: 10 µM
Compounds without any hit were thinned out: in the full panel of roughly 83,000, 20% have a hit.
Entries and their measured growth follow.
The reply should contain only the number, in %.

Before answering, review these 2 worked examples.
INSERT INTO results (molecule, unit_label, value_reported) VALUES
  ('C#Cc1ccc(-n2c(/C=C/c3ccc4ccccc4n3)nc3ncccc3c2=O)cc1', '%', 5.05),
  ('CC/C(=C(/c1ccc(OCCN(C)C)cc1)c1ccc(OC(=O)CCC(=O)c2c(C)[nH]c(/C=C3\N=C(c4ccc[nH]4)C=C3OC)c2C)cc1)c1ccccc1', '%', 63.5);

Report growth for N=C(N)c1ccc(-c2ccc(-c3cccs3)s2)s1
74.2

Report growth for O=C(C[P+](c1ccccc1)(c1ccccc1)c1ccccc1)C[P+](c1ccccc1)(c1ccccc1)c1ccccc1
-3.83

Report growth for CCCCCCCCCCCCCC[n+]1ccc(C(N)=O)cc1
34.3

Report growth for O=C(CCCCC(=O)Nc1ccc2c(c1)/C(=C/c1ccc[nH]1)C(=O)N2)NO
73.6

Report growth for COc1cccc(C(=O)Nc2ccc(CN3CCc4nc5cc(OC)c(OC)cc5cc43)cc2)c1
74.2

---

Test system: OVCAR-8 ovarian
experiment: NCI-60 one-dose screen, 48 h (100 = growth as untreated, 0 = no growth, -100 = all killed)
condition_info: 10 µM
Compounds without any hit were thinned out: in the full panel of roughly 83,000, 20% have a hit.
Entries and their measured growth follow.
The reply should contain only the number, in %.

Report growth for O=C(Nc1ccc(CO)cc1)c1ccccc1Nc1ccnc(C(F)(F)F)c1
98.3

Report growth for CC/C(=N\N=C(/CC)c1ccc(Br)cc1)c1ccc(Br)cc1
116

Report growth for N=C(N)c1ccc(-c2ccc(-c3cccs3)s2)s1
-47.2

Report growth for O=C1OCC2=C1C(c1cccc(Cl)c1)c1cc3c(cc1N2CCO)CCC3 (centres undefined)
4.21

---

System: RPMI-8226 leukemia
experiment: NCI-60 one-dose screen, 48 h (100 = growth as untreated, 0 = no growth, -100 = all killed)
condition_info: 10 µM
Compounds without any hit were thinned out: in the full panel of roughly 83,000, 20% have a hit.
recorded_metric: growth (%)
The reply should contain only the number, in %.

INSERT INTO assay_data (compound, value_reported) VALUES
  ('CCOCCOCCOCCOCCOCCOCCOCCOCCOCCO (tested in a mixture with another compound)', -33.3),
  ('O=C(O)CCCCSc1ncnc2nc[nH]c12', 108),
  ('O=C1/C(=C\c2ccc(F)cc2)CN(C(=O)c2ccccc2F)C/C1=C\c1ccc(F)cc1', -35.8),
  ('COc1ccc(-c2ccc(-c3ccc(C(=N)N)cn3)o2)cc1', 28.3),
  ('C/C(=N\Nc1nc2ccccc2s1)c1ccncn1', -26.4);

Report growth for CCN(CC)CCC(=O)Nc1cccc2c1C(=O)c1c(c(O)c3ccccc3c1O)C2=O
33.2

Report growth for CC[C@H]1CCC/C=C/[C@@H]2C[C@H](O)C[C@H]2[C@H](O)/C=C/C(=O)O1
-3.82

Report growth for COC(=O)C1(C)Cc2cc(OC(C)=O)c(OC(C)=O)cc2N1 (stereo not given)
23.6

Report growth for COc1ccc(-c2nn(-c3cccc(NC(=O)Nc4cccc(C(F)(F)F)c4)c3)cc2-c2ccncc2)cc1Cl
-11

Report growth for COc1ccc(/C=C2/CN(C(=O)c3ccc(C)cc3)C/C(=C\c3ccc(OC)cc3)C2=O)cc1
-6.11
